experiment: self-splicing fitness, log relative to wild type (ln ratio); higher = more splicing; Tetrahymena group I intron in knt gene, E. coli kanamycin selection, DiMSum; sequences stand for … in CUCUCU…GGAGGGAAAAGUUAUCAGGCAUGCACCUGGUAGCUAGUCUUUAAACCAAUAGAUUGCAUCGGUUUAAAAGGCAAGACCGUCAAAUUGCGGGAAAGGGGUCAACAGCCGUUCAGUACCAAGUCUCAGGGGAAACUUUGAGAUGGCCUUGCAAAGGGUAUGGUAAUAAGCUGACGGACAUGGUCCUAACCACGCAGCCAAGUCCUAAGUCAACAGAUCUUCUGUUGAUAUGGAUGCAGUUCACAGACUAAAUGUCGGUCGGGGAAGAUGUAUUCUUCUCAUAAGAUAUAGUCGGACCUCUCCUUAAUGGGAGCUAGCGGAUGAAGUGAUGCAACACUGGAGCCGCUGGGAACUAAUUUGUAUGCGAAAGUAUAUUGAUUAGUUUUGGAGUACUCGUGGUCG; details: 37 °C;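 note: selection with 25 µg/mL kanamycin versus none on LB agar overnight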
measure: self-splicing fitness (ln)
// no unit, no text: just the number

Study these solved cases before continuing.
> print(dat)
          sequence.data                     measure  measured.value
1  GGCGAGCAAUAUUACGGGAU  self-splicing fitness (ln)           -2.21
2  CAGAAGCAAUAUUACGCUAA  self-splicing fitness (ln)           -1.97
3  GCGCAGCAAUAUUACGACAA  self-splicing fitness (ln)          -0.342
4  ACUUAGCAAUAUUACGGCCA  self-splicing fitness (ln)          -0.409
5  GACGAGCAAUAUUACGACAA  self-splicing fitness (ln)           -1.24

[ask] Need self-splicing fitness (ln) of CACGAGCAAUAUUACGUCGC , thanks.
[reply] -2.69

[ask] Need self-splicing fitness (ln) of GGGGAGCAAUAUUACGAGUA , thanks.
[reply] -2.98

[ask] Need self-splicing fitness (ln) of UCGGAGCAAUAUUACGUUCA , thanks.
[reply] -2.2

[ask] Need self-splicing fitness (ln) of UCCAAGCAAUAUUACGUCCA , thanks.
[reply] -0.691

[ask] Need self-splicing fitness (ln) of UAGUAGCAAUAUUACGAUCG , thanks.
[reply] 0.251
